- Tested on: MS2 coat protein
- TEST SUMMARY: apparent KD of MS2 coat protein, switch ON state; designed switch direction (-1 OFF switch, 1 ON switch): -1; higher = weaker reporter binding
- STATED CONDITIONS: FMN input: 0 or 200 uM; Eterna round: R93 (includes R88 designs)
Note to self: values exactly at 30 nM are label 1. So apparent KD of MS2 coat protein at or above 30 nM is label 1, below is label 0.

Examples with answers:
ENTRY SEQUENCE	ASSIGNED CATEGORY
AGGAAACAUGAGGAUCACCCAUGUGAGGAUAUAGGAAAGAAAAGAAAAGAAAGAAGAAUUAGAAGGCACAAGAA [Djet]	label 0
AUAGGGCUAGGAUAUACAUGAGGAUCACCCAUGUAAACAGAUAGAUCAAGGUAAACGAGUAGAAGGAGCAAUAA [JR_Exc003_Sub210]	label 0
AUCAUGUAAGGAUAUGACUACAUAAAAAAAAAAAAAUGUAGUCAGAAGGUACAUGAGGAUCACCCAUGUACAAA [Mod of Brourd]	label 0
UAUAUACAUGAGGAUCACCCAUGUCAGGAUAUGCGCCCAGAAUAUACAUAUGAUACAAGCAGAAGGGACACUAA [JR_Exc001_Sub205]	label 1
AACAUGUCAGGAUAUGCGAAGGCGUCUGACAGACGAGGCUAGCAGAAGGGACAUGAGGAUCACCCAUGUAAAAA [Mod of Power Strip by EINando888 - changed 3 and 30 to C]	label 1

Input line: Please tell me: is the sequence AAAAAGUUAGGAUAUACAUGAGGAUCACCCAUGUACAUAUAUGGAGAAAAAAACAGUAGUAGAAGGGACAAAAA [EX2 Malc#12] at or over 30 nM in terms of apparent KD of MS2 coat protein?
Output line: label 0

Input line: Please indicate if the recorded apparent KD of MS2 coat protein for AGUUGGCGAGGAUAUACAUGAGGAUCACCCAUGUGAGAGUAAAAAGUGAGAAAGAGAAGUAGAAGGCGCUAACA [Ruby 53] meets or exceeds 30 nM.
Output line: label 1

Input line: Please indicate if the recorded apparent KD of MS2 coat protein for AAAAAGUCAGGAUAUACAUGAGGAUCACCCAUGUGAAAGAACGAUUAACGACCAGCAAGUAGAAGGGACAAAAA [Ruby 80] meets or exceeds 30 nM.
Output line: label 0

Input line: Does the sequence AGUUGGCGAGGAUAUACAUGAGGAUCACCCAUGUGAAAAAAGGGCUCGAAAGAGAAAAGUAGAAGGCGCUGACA [73%, Moding Norbert Elias, 7] have recorded apparent KD of MS2 coat protein that is 30 nM or more?
Output line: label 0

Input line: Quick check, apparent KD of MS2 coat protein >= 30 nM? UAAAGACAUGAGGAUCACCCAUGUGAGGAUAUCGGAGGUGACGGAGCAUCGAGUUCGGCGAGAAGGCGCAGGAA [JR_Exc001_Sub409]
Output line: label 1

Input line: Assess whether reported apparent KD of MS2 coat protein for AAAACUAGAGGAUAUACGUACAUGUCAAAAGACGUGAAGGGACAUGAGGAUCACCCAUGUAGAAGGCUAGAAAA [JL Stem Breaker 9] sits at 30 nM or higher.
Output line: label 1

Input line: Check the entry AAAAUACAUGAGGAUCACCCAUGUGAGGAUAUGCAAAACCCAUAUAAAAAGGGAAAAAGCAGAAGGUACAAAAA [wbt round 1 mod 14] : does apparent KD of MS2 coat protein equal or exceed 30 nM?
Output line: label 0

Input line: Has AAAAAGGGAGGAUAUACAUGAGGAUCACCCAUGUAGCAGACGAAAAAGAGUCUGUAAUGUAGAAGGCCCAAAAA [65%, Moding Exclusion3-cac2, 4] a recorded apparent KD of MS2 coat protein greater than or equal to 30 nM?
Output line: label 0

Input line: Does the sequence AAAAAACAUGAGGAUCACCCAUGUGAGGAUAUACAAAACCCAUAUAAAAAGGGAAAAAGUAGAAGGCGCAAAAA [wbt round 1 mod 8] have recorded apparent KD of MS2 coat protein that is 30 nM or more?
Output line: label 0

Input line: # bool: apparent KD of MS2 coat protein of AAAAGGUCAGGAUAUGCCCGCCGGGUGGGAAGGCCGGGUGGGUAGAAGGGACAUGAGGAUCACCCAUGUAAAAA [Opal 42] >= 30 nM
Output line: label 1

Input line: Test whether the sequence UCCAGACAUGAGGAUCACCCAUGUCAGGAUAUCUAGAAAACCUCAUGUAAAAAAAACUAGAGAAGGGAUAUGGA [Design 95: Pseudoknot E] records apparent KD of MS2 coat protein of 30 nM or higher.
Output line: label 0

Input line: Dear colleague, could you confirm whether AAGAACGGAGGAUAUACUAAAGAAAUGAAAAGAAAUAAAGAACAUGAGGAUCACCCAUGUAGAAGGCCGAAGAA [Sehebre] has apparent KD of MS2 coat protein at or above 30 nM?
Output line: label 0

Input line: Reported apparent KD of MS2 coat protein reaches at least 30 nM for AGCGAGUAAGGAUAUCGGAAAGGACACGAAAGUGACAAAGACGAGAAGGUACAUGAGGAUCACCCAUGUAAAAA [milkweed 25] ?
Output line: label 0

Input line: # bool: apparent KD of MS2 coat protein of AACAGGACAGGAUAUACAUGAGGAUCACCCAUGUCACAACAAAGCAGCGCAACACAAAGUAGAAGGGUCAUGGA [Ruby 13] >= 30 nM
Output line: label 1

Input line: I'd appreciate it if you could say whether CUCUAGUUAGGAUAUGCAAGAAAAGAAAAGAAAGAAAAGAAGCAGAAGGAACAUGAGGAUCACCCAUGUAAGAA [EteRNA is fun!] has apparent KD of MS2 coat protein at least equal to 30 nM.
Output line: label 1

Input line: Reported apparent KD of MS2 coat protein reaches at least 30 nM for AACUGACAUGAGGAUCACCCAUGUCAGGAUAUGCUUCAUAAAAAGAAACAAAAAUGAUGCAGAAGGGAUAUGGA [Design 35 :P Sub-opt 11] ?
Output line: label 0

Input line: Does the sequence AUGGUAGGAGGAUAUACAUAGAUACAGAUACAUGUAGACGUACAUGAGGAUCACCCAUGUAGAAGGCCUAUAAA [Mat - Same state - Mayanna Mod - D150] have recorded apparent KD of MS2 coat protein that is 30 nM or more?
Output line: label 1

Input line: Does ACCUGACAUGAGGAUCACCCAUGUCAGGAUAUGACUUCGAAAAAAAAAAAAAACGAUGUCAGAAGGGACAUGGG [Design 70: Sub-opt P] have a reported apparent KD of MS2 coat protein of at least 30 nM?
Output line: label 0

Input line: In plain terms: is recorded apparent KD of MS2 coat protein at least 30 nM for AAGAAACAUGAGGAUCACCCAUGUCAGGAUAUUCAAAAGAAAAGAAAAGAAAGAAGAAGAAGAAGGGACAAAGG [Neferkare II] ?
Output line: label 1

Input line: Is apparent KD of MS2 coat protein at least 30 nM? Consider GGUUGUGGAGGAUAUACAUGAGGAUCACCCAUGUGAGAGAAAAAAGUGAGAAAGAAAAGUAGAAGGUCAUGACG [salish99-ex3-65]
Output line: label 1

###

- Tested on: MS2 coat protein
- TEST SUMMARY: apparent KD of MS2 coat protein; higher = weaker reporter binding
- STATED CONDITIONS: Eterna round: R107; input ligand: theophylline 20 uM
Listing of recorded apparent KD of MS2 coat protein by entry.
Put your answer as a value accompanied by its unit after it.

Solved cases (3 shown):
ENTRY SEQUENCE	ENDPOINT RESULT
AGUACUCGAACGGAUACCAGCCGGACAUGAGGAUCACCCAUGUCCUACCUAUGUUCGGUUGGCCCUUGGCAGCCGUUCGUGUACA [Omei Theo B SS A v6]	707 nM
UGAGUUCGCUGAUGGGCUAAGUCAGGUGAUACCAGCCACUCCCGCGGCCCUUGGCAGCACAUGAGGAUCACCCAUGUAGAACUUG [Vexetela]	31.1 nM
UGAGAGACCAGAAGGAGCGACAUGAGGAUCACCCAUGUCUCCCGUUAUGGGAGUUCUUUAGGUCAGGUAGGUCGCUGGUCUCUCA [#1 Exclusion - Arginine B Attempt #8 (Inspired by Omei)]	120 nM

Short answer for AUUAAGGAUAUAUAGAAGGCGGAGAAGAGACGAGGACCGGUACGGCCGCCACUCGUGUUAGUUAACAUGAGGAUCACCCAUGUAA [Turkey 2] : apparent KD of MS2 coat protein was 76.9 nM

// recorded apparent KD of MS2 coat protein for "UGUAUGUGAUCUGAUACCAGUCCAACUGGUAAAACCUGAGGAACACCCAGGUAAAAUUGGGACCCUUGGCAGCAGAUCGCAUACU" : 147 nM

The recorded apparent KD of MS2 coat protein for UGUAACAUGAGGAUCACCCAUGUGAGUGAUACCAGAUUAGUAUUAGUCCCUUGGCAGCACGUUGGGCGAGUGUAUAGUCUAUGCG [Same State - Theophylline A (Freestyle 13)] is 162 nM

Reported apparent KD of MS2 coat protein for UUUUCAGGGUCGGCCGCCACUGGUAUGGCGAGUCCUCGAACAAACAUGAGGAUCACCCAUGUGAACAGGACCGGGACAGCAUGGG [Exclusion Tryptophan B GF 21] was 538 nM

The recorded apparent KD of MS2 coat protein for CUUGUCGUAACUGAUACCAGUGUACUGACAUGAGGAUCACCCAUGUUGGGUUUUGUUGUACACCCUUGGCAGCAGAAUCGAUAAG [AstrosExyTheB#9] is 95.3 nM

Data point: AAAUAAAUAACUGAUACCAGUGUACUGACAUGAGGAUCACCCAUGUUGGGUUUUGUUGUACACCCUUGGCAGCAGAAAUAUAAAA [AstrosExyTheB#1] ; apparent KD of MS2 coat protein = 41.2 nM

Sample AAUGUAUGGCACAUGAGGAUCACCCAUGUGCGAGGACCGGUACGGCCGCCACUCGGUCCUGGGAACUUAUUACUAUACAUUAAUG [XTryp A #18] ; apparent KD of MS2 coat protein observed: 16.9 nM

// apparent KD of MS2 coat protein lookup, sequence = GAUGAUAUUGCAGAUACCAGACACAUGAGGAUCACCCAUGUCGUUGGGUCGCUGGGUCGUGUCCCUUGGCAGCUGCGAUAUCAUC [#04 Exclusion-TheophyllineB] , result: 52.6 nM

Entry UGUAUGGACUGAAGGAGCGCAUCAAAAUAACAUGAGGAUCACCCAUGUAAGGCGAAAGCCGUGCAGGUAGGUCGCAGUCCAUACU [ArgBX 3] , apparent KD of MS2 coat protein reported as 17.3 nM

The sequence AUAAGUAUGUUUUCGUGUUUUAUUACAGAUACCAGACUAUACGUUGUCCCUUGGCAGCUGGAUUACAUGAGGAUCACCCAUGUUG [#26 Exclusion-TheophyllineA] showed apparent KD of MS2 coat protein equal to 32 nM

The reported apparent KD of MS2 coat protein of the sequence AUAAAUAAUAAAUAAAAUAAAGUGGGUGAACGAGGACCGGUACGGCCGCCACUCGGACAUGAGGAUCACCCAUGUCCAUGUGAAA [AstrosExyTry#1] was 22.4 nM
